molecular target: T1, human CD47 on cells (SHP-77 tumor cells, human red blood cells, CCRF-CEM cells, human CD47 CHO-K1 stable cell … (human, UniProt Q08722 19-323)); assay: flow cytometry on SHP-77 cells
T1 construct: whole, on cells; also called RBC
Items are presented alongside their recorded Fitted Maximal MFI.
Quick note: give the figure in MFI, leave out the unit.

Recorded results for 3 binders are shown here.
binder | quantity.measured | reported.result
108VH5.M22 / 108VL1.M5 (antibody, human IgG4 S228P, kappa, V domains shown, Full-length IgG4 (S228P), kappa; also called VH5.M22 VL1.M5) VH: EVQLVQSGAEVKKPGASVKVSCKASGYTFTHHWMHWVRQAPGQGLEWMGMIDASDIETRYAQKFQGRVTMTRDTSTSTVYMELSSLRSEDTAVYYCARLGRYYFDYWGQGTLVTVSS VL: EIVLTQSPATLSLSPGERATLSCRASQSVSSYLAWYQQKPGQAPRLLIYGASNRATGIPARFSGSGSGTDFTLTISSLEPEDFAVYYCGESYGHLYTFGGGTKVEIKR | Fitted Maximal MFI | 41600
108VH10.Mo / 108VL10.Me (antibody, V domains shown, 4D5-framework series; also called VH10.Mo VL10.Me) VH: EVQLVESGGGLVQPGGSLRLSCAASGFTFSHHWIHWVRQAPGKGLEWVAMIDASDSETRLSDSFKGRFTISADTSKNTAYLQMNSLRAEDTAVYYCSRLGRYYFDYWGQGTLVTVSS VL: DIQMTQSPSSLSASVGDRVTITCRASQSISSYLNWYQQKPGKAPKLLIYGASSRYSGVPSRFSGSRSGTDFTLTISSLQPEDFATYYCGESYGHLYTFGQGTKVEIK | Fitted Maximal MFI | 34500
108VH5.M15 / 108VL1.M5 (antibody, human IgG4 S228P, kappa, V domains shown, Full-length IgG4 (S228P), kappa; also called VH5.M15 VL1.M5) VH: EVQLVQSGAEVKKPGASVKVSCKASGYTFTHHWIHWVRQAPGQGLEWMGMIDASDSSTRYAQKFQGRVTMTRDTSTSTVYMELSSLRSEDTAVYYCARLGRYYFDYWGQGTLVTVSS VL: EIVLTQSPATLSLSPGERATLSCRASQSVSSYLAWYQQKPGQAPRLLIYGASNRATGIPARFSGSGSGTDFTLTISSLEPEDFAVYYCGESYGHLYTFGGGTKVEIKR | Fitted Maximal MFI | 3680

### Prompt Look up and report measured Fitted Maximal MFI for this entry: 108VH10.Mr / 108VL10.Me (antibody, V domains shown, 4D5-framework series; constant regions not restated for this series; also called VH10.Mr VL10.Me) VH: EVQLVESGGGLVQPGGSLRLSCAASGFTFSHHWIHWVRQAPGKGLEWVAMIDASDSETRLVDSVKGRFTISADTSKNTAYLQMNSLRAEDTAVYYCSRLGRYYFDYWGQGTLVTVSS VL: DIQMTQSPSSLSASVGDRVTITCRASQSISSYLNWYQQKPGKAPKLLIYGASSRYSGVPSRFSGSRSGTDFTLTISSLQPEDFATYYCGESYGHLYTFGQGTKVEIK
### Response 25400

### Prompt Look up and report measured Fitted Maximal MFI for this entry: 108VH5.M27 / 108VL1.M5 (antibody, human IgG4 S228P, kappa, V domains shown, Full-length IgG4 (S228P), kappa; also called VH5.M27 VL1.M5) VH: EVQLVQSGAEVKKPGASVKVSCKASGYTFTHHWMHWVRQAPGQGLEWMGMIDASDYETRYAQKFQGRVTMTRDTSTSTVYMELSSLRSEDTAVYYCARLGRYYFDYWGQGTLVTVSS VL: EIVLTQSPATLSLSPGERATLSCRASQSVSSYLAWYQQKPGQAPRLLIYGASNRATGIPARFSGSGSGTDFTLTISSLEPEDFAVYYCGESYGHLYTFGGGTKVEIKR
### Response 36500
